System: DENV-1
Assay: Anti-DENV activity assay, DENV RNA level by qRT-PCR in infected Huh-7 cells
Type: cell-based
Conditions: Dengue virus, DENV1, MOI 0.2, 72 h
Experimental Endpoint: pEC50
Keep it numeric: pEC50 is minus log10 of the concentration in mol/L.

Exercise: Provide pEC50 value for the following molecule: CC(=O)OC1CC(C)(C)C(=C=CC(C)=CC=CC=CC=C(C)C=C2C=C(C=CC34OC3(C)CC(O)CC4(C)C)C(=O)O2)C(C)(O)C1 (stereo not shown) [Compound 9, peridinin]
Solution: 5.12

###

Biological target: DENV NS2B/NS3 protease (Dengue virus type 2)
Sequence (P29990 1476-2093): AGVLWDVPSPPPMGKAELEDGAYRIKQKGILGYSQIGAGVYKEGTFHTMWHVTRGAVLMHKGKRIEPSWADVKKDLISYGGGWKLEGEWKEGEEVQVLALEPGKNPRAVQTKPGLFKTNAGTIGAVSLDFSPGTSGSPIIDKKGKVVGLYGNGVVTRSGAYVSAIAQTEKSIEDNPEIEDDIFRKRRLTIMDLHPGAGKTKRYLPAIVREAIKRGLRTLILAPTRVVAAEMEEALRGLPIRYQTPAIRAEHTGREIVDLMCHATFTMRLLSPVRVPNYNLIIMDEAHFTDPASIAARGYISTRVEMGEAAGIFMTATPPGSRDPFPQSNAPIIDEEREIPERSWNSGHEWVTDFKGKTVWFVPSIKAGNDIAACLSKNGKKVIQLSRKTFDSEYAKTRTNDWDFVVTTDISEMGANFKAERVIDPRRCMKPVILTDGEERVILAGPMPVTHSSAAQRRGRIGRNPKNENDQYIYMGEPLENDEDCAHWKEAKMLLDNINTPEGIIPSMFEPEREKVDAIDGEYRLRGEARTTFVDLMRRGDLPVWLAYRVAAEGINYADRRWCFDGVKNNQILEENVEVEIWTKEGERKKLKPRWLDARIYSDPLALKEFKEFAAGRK
Sequence (P29990 1346-1475): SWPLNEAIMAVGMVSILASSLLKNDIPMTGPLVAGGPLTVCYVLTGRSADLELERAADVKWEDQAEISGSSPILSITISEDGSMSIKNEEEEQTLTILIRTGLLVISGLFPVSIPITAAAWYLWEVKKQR
Experiment: cell-based
Experimental Endpoint: pEC50
API: returns pEC50 as number; meaning -log10 of concentration in mol/L.

Exercise: Please supply the value of reported pEC50 for the item CC(=O)OC1CC(C)(C)C(=C=CC(C)=CC=CC=CC=C(C)C=C2C=C(C=CC34OC3(C)CC(O)CC4(C)C)C(=O)O2)C(C)(O)C1 (stereo not shown) [Compound 9, peridinin]
Solution: 5.07

###

Measured CC50 at 72 h of individual entries
Test: Cytotoxicity assay (MTS)
Type: cell-based
Settings: human, Huh-7 cells, read-out: CC50, half maximal cytotoxicity concentration
Procedure: Huh-7 cells were seeded onto 96-well plate at a density of 5 × 10^3 cells per well, followed by compound treatment for 72 h. The cell viability was determined using a standard MTS assay (CellTiter 96® Aqueous One Solution Cell Proliferation assay system, Promega, Madison, WI, USA) according to the manufacturer’s instructions.
Just the number please, in µM, no unit attached.

CC(=O)OC1CC(C)(C)C(=C=CC(C)=CC=CC=CC=C(C)C=C2C=C(C=CC34OC3(C)CC(O)CC4(C)C)C(=O)O2)C(C)(O)C1 (stereo not shown): 133

In the following, a different molecule is considered.
Exercise: Specify reported CC50 at 72 h for the molecule shown: C[C@@]1(O)[C@H](O)[C@@H](CO)O[C@H]1n1ccc(N)nc1=O [2′CMC, 2′-C-methylcytidine, reference compound]
Solution: 94.8
